Hey, just so you know, these numbers are from PubChem BioAssay (NCI).

- System: HOP-62 NSCLC
- assay_text: NCI tumour cell line growth inhibition, 48 h

compound	TGI
Nc1nonc1-c1nc2ccccc2n1Cc1ccc(F)cc1	> 100 µM
CC(=O)Nc1ccc2c3c(cc(O)c2c1)N(C(=O)CCCCC(=O)N1CC(CCl)c2c1cc(O)c1cc(NC(C)=O)ccc21)CC3CCl (stereo not drawn)	8.78 µM
Cc1csc(NNC(N)=O)n1	> 100 µM
N#COc1ccc(Oc2ccccc2)cc1	> 100 µM
COc1ccc(C2C(C#N)=C(S)N(C3OC(COC(C)=O)C(OC(C)=O)C(OC(C)=O)C3OC(C)=O)C(C)=C2C(C)=O)cc1 (stereo not drawn)	> 100 µM
CC1=CC(C)(c2c[nH]c3ccccc23)CC(C)(C)c2c1[nH]c1ccccc21 (stereo not drawn)	79.7 µM
Cc1ccccc1NC(=O)/C=N/O	> 100 µM
CCOC(=O)C(Cc1c[nH]c2cc(N(CCO)CCO)ccc12)(NC(C)=O)C(=O)OCC	> 1000 µM
O=c1[nH]c2cc([N+](=O)[O-])ccc2nc1/C(=N/Nc1ccccc1)C(O)c1ccco1 (stereo not drawn)	> 100 µM
CCO/S(=N/S(=O)(=O)c1ccccc1)c1ccccc1[N+](=O)[O-] (stereo not drawn)	> 100 µM
O=C1C[C@H](COCc2ccccc2)NC(=O)C[C@H](COCc2ccccc2)NC(=O)C[C@H](COCc2ccccc2)N1	> 100 µM
N#CC1=C(N)NC(=S)NC1c1ccc(-c2ccc(-c3nc4ccccc4o3)cc2)s1 (stereo not drawn)	20.1 µM
Cc1c(Cl)c(=O)oc2cc(OC/C=C3\CCC(=O)O3)ccc12	66.1 µM
CNCCCNC(=S)Cn1cc(C)c(=O)[nH]c1=O	> 100 µM
COc1ccc2c(c1)c1c(n2CCN2CCOCC2)-c2cccc(OC)c2CC1	> 100 µM
O=c1c2cc(Br)cc(Br)c2nc(CCCl)n1-c1ccc(O)c([N+](=O)[O-])c1	33 µM
Cc1cc(C(=O)/C=C/c2ccc[nH]2)ccc1-n1ccc(C(F)(F)F)n1	> 100 µM
COc1ccc2c(c1)CC1COc3cc(OC)ccc3C1O2 (stereo not drawn)	> 100 µM
CCN(CC)Cc1ccccc1CC(=O)N1c2ccccc2C(=O)Nc2cccnc21	> 100 µM
O=[N+]([O-])c1cccc(-c2nc(-c3ccc(Cl)cc3Cl)cn2-c2ccccc2)c1	7.56 µM
O=C(O)[C@@H]1OCCOCCO[C@@H](C(=O)O)[C@H](C(=O)O)OCCOCCO[C@H]1C(=O)O	> 100 µM
O=C(CC(O)(C(F)(F)F)C(F)(F)Cl)CC(O)(C(F)(F)F)C(F)(F)Cl (stereo not drawn)	5.85 µM
Nc1ccccc1C#C/C=C\C#CC#C/C=C\C#Cc1ccccc1N	28.1 µM
Cn1c2c(c3ccccc31)CCN=C2C1CCCOC1=O (stereo not drawn)	> 100 µM
CO[C@@H]1CCN(c2nccc(Nc3cc4c(C(C)C)ccc(N5CC(CS(C)(=O)=O)[C@H]5C)c4cn3)n2)C[C@@H]1F (stereo partly drawn)	> 100 µM
O=C(O)CCO/N=C1/C(c2c(O)[nH]c3ccccc23)=Nc2ccccc21	> 100 µM
c1cc(-c2ccc(-c3nc4ccc(C5=NCCN5)cc4s3)s2)ccc1C1=NCCN1	0.257 µM
CCC1C(C#N)=C(O)NC(O)=C1C#N	> 100 µM
COC(=O)[C@H](Cc1ccccc1)NC(=O)N(CCC#N)CCCCN(CCC#N)C(=O)N[C@@H](Cc1ccccc1)C(=O)OC	> 100 µM
CC1(C)CCCC2(C)C3C(O)CC2(C)C(O)C31 (stereo not drawn)	> 100 µM
Cc1ccc(/C=C2/N=C(N/N=C\C(O)C(O)C(O)CO)NC2=O)cc1 (stereo not drawn)	> 100 µM
CCOC(=O)c1nc2ccccc2n(CC)c1=O	> 100 µM
CN(C)CCCNc1ccc2nnn3c4ccc(OC(=O)c5ccccc5)cc4c(=O)c1c23	20.9 µM
